# study-system: MRFAP1
# measurement-protocol: reporter assay of Huesken 2005
# condition-info: siRNA
Oligonucleotides are written 5' to 3', each unit as a sugar letter and its base; * is a phosphorothioate linkage, no mark a phosphodiester; rarer units and linkages stand in square brackets, end groups in braces. Plain capitals give the bases only. d = 2'-deoxy (DNA); r = 2'-OH (RNA)
normalised inhibition (eCFP-eYFP dual reporter) below 80% gives -1; normalised inhibition (eCFP-eYFP dual reporter) at or above it gives 1.

Consider the worked cases shown below.
>  <substance>
sense rGrArUrCrArArGrArCrGrCrArGrGrUrArGrArGdTdT / antisense rCrUrCrUrArCrCrUrGrCrGrUrCrUrUrGrArUrCdTdG

>  <category-label>
-1

$$$$
>  <substance>
sense rUrCrGrCrUrGrArCrGrCrGrCrGrArGrCrGrCrGdTdT / antisense rCrGrCrGrCrUrCrGrCrGrCrGrUrCrArGrCrGrAdCdG

>  <category-label>
-1

$$$$
>  <substance>
sense rArCrUrUrCrArArGrGrArArGrArGrGrCrGrUrCdTdT / antisense rGrArCrGrCrCrUrCrUrUrCrCrUrUrGrArArGrUdTdT

>  <category-label>
1

$$$$
>  <substance>
sense rCrUrUrCrGrArGrCrArGrUrUrUrCrUrGrCrUrGdTdT / antisense rCrArGrCrArGrArArArCrUrGrCrUrCrGrArArGdTdC

>  <category-label>
-1

$$$$
>  <substance>
sense rCrUrArGrGrArCrUrGrArUrGrArCrCrUrGrGrGdTdT / antisense rCrCrCrArGrGrUrCrArUrCrArGrUrCrCrUrArGdCdC

>  <category-label>
-1

$$$$
>  <substance>
sense rArGrGrUrCrArArArArCrCrCrUrUrArCrCrArUdTdT / antisense rArUrGrGrUrArArGrGrGrUrUrUrUrGrArCrCrUdCdA

>  <category-label>
1

$$$$

Query :: Form field: normalised inhibition (eCFP-eYFP dual reporter) at least 80%? Entry: sense rArCrArArGrCrArArArGrCrArGrCrGrGrArGrAdTdT / antisense rUrCrUrCrCrGrCrUrGrCrUrUrUrGrCrUrUrGrUdCdT
Result :: -1

Query :: Also check sense rCrGrGrUrArUrGrGrGrArGrArUrGrArGrGrUrCdTdT / antisense rGrArCrCrUrCrArUrCrUrCrCrCrArUrArCrCrGdGdG
Result :: 1

Query :: Also check sense rGrUrGrUrGrUrUrCrCrUrGrArArUrUrUrGrArGdTdT / antisense rCrUrCrArArArUrUrCrArGrGrArArCrArCrArCdCdA
Result :: -1

Query :: Also check sense rGrArCrGrCrArGrUrGrGrArGrCrUrGrGrCrGrGdTdT / antisense rCrCrGrCrCrArGrCrUrCrCrArCrUrGrCrGrUrCdCdA
Result :: -1

Query :: Also check sense rCrGrGrGrGrCrArArGrCrUrGrUrGrGrGrArGrAdTdT / antisense rUrCrUrCrCrCrArCrArGrCrUrUrGrCrCrCrCrGdGdT
Result :: -1

====

As shown below, each of these substances has a reported normalised inhibition (eCFP-eYFP dual reporter) value.
# study-system: TMEM63B
# measurement-protocol: reporter assay of Huesken 2005
# condition-info: siRNA
Oligonucleotides are given in HELM: sugar(base)linkage, 5' to 3'; d 2'-deoxyribose, r ribose, m 2'-O-methylribose, p phosphate. ss, as = sense and antisense strand
# include the unit after the value

Query :: Returns the measured normalised inhibition (eCFP-eYFP dual reporter) for the input substance. Input: RNA1{r(C)p.r(U)p.r(G)p.r(C)p.r(G)p.r(C)p.r(U)p.r(G)p.r(C)p.r(C)p.r(U)p.r(G)p.r(G)p.r(U)p.r(C)p.r(A)p.r(U)p.r(C)p.r(A)p.d(T)p.d(T)}|RNA2{r(U)p.r(G)p.r(A)p.r(U)p.r(G)p.r(A)p.r(C)p.r(C)p.r(A)p.r(G)p.r(G)p.r(C)p.r(A)p.r(G)p.r(C)p.r(G)p.r(C)p.r(A)p.r(G)p.d(C)p.d(C)}$$$RNA1{StrandType:ss}|RNA2{StrandType:as}$
Result :: 66.1%

Query :: Also check RNA1{r(G)p.r(G)p.r(G)p.r(A)p.r(G)p.r(A)p.r(A)p.r(C)p.r(A)p.r(G)p.r(G)p.r(A)p.r(C)p.r(A)p.r(A)p.r(C)p.r(C)p.r(A)p.r(U)p.d(T)p.d(T)}|RNA2{r(A)p.r(U)p.r(G)p.r(G)p.r(U)p.r(U)p.r(G)p.r(U)p.r(C)p.r(C)p.r(U)p.r(G)p.r(U)p.r(U)p.r(C)p.r(U)p.r(C)p.r(C)p.r(C)p.d(C)p.d(A)}$$$RNA1{StrandType:ss}|RNA2{StrandType:as}$
Result :: 65.9%

Query :: Also check RNA1{r(U)p.r(C)p.r(C)p.r(A)p.r(U)p.r(C)p.r(C)p.r(G)p.r(A)p.r(G)p.r(G)p.r(C)p.r(U)p.r(U)p.r(C)p.r(A)p.r(U)p.r(C)p.r(U)p.d(T)p.d(T)}|RNA2{r(A)p.r(G)p.r(A)p.r(U)p.r(G)p.r(A)p.r(A)p.r(G)p.r(C)p.r(C)p.r(U)p.r(C)p.r(G)p.r(G)p.r(A)p.r(U)p.r(G)p.r(G)p.r(A)p.d(G)p.d(A)}$$$RNA1{StrandType:ss}|RNA2{StrandType:as}$
Result :: 65.3%

Query :: Also check RNA1{r(A)p.r(U)p.r(G)p.r(G)p.r(A)p.r(A)p.r(U)p.r(C)p.r(U)p.r(C)p.r(C)p.r(A)p.r(A)p.r(A)p.r(U)p.r(A)p.r(U)p.r(G)p.r(C)p.d(T)p.d(T)}|RNA2{r(G)p.r(C)p.r(A)p.r(U)p.r(A)p.r(U)p.r(U)p.r(U)p.r(G)p.r(G)p.r(A)p.r(G)p.r(A)p.r(U)p.r(U)p.r(C)p.r(C)p.r(A)p.r(U)p.d(T)p.d(G)}$$$RNA1{StrandType:ss}|RNA2{StrandType:as}$
Result :: 78.7%

Query :: Also check RNA1{r(A)p.r(A)p.r(G)p.r(A)p.r(U)p.r(C)p.r(A)p.r(A)p.r(G)p.r(A)p.r(A)p.r(G)p.r(C)p.r(A)p.r(U)p.r(U)p.r(U)p.r(U)p.r(G)p.d(T)p.d(T)}|RNA2{r(C)p.r(A)p.r(A)p.r(A)p.r(A)p.r(U)p.r(G)p.r(C)p.r(U)p.r(U)p.r(C)p.r(U)p.r(U)p.r(G)p.r(A)p.r(U)p.r(C)p.r(U)p.r(U)p.d(T)p.d(T)}$$$RNA1{StrandType:ss}|RNA2{StrandType:as}$
Result :: 61.7%

====

As shown below, each of these substances has a reported normalised inhibition (eCFP-eYFP dual reporter) value.
# study-system: UBE2M
# measurement-protocol: reporter assay of Huesken 2005
# condition-info: siRNA
Oligonucleotides are written 5' to 3', each unit as a sugar letter and its base; * is a phosphorothioate linkage, no mark a phosphodiester; rarer units and linkages stand in square brackets, end groups in braces. Plain capitals give the bases only. d = 2'-deoxy (DNA); r = 2'-OH (RNA)
The figure you give is taken to be in %; do not add the unit.

>  <substance>
sense rGrUrCrCrUrGrArUrGrArGrGrGrCrUrUrCrUrAdTdT / antisense rUrArGrArArGrCrCrCrUrCrArUrCrArGrGrArCdAdG

>  <output-unit>
%

>  <measured-result>
80.3

$$$$
>  <substance>
sense rGrGrGrCrGrGrCrArCrCrArArGrGrGrCrArGrCdTdT / antisense rGrCrUrGrCrCrCrUrUrGrGrUrGrCrCrGrCrCrCdGdC

>  <output-unit>
%

>  <measured-result>
64.9

$$$$
>  <substance>
sense rCrUrUrCrUrArCrArArGrArGrUrGrGrGrArArGdTdT / antisense rCrUrUrCrCrCrArCrUrCrUrUrGrUrArGrArArGdCdC

>  <output-unit>
%

>  <measured-result>
75.9

$$$$
>  <substance>
sense rCrGrArGrCrUrGrArArCrCrUrGrCrCrCrArArGdTdT / antisense rCrUrUrGrGrGrCrArGrGrUrUrCrArGrCrUrCrGdTdT

>  <output-unit>
%

>  <measured-result>
71.9

$$$$
>  <substance>
sense rArCrGrUrCrUrGrCrCrUrCrArArCrArUrCrCrUdTdT / antisense rArGrGrArUrGrUrUrGrArGrGrCrArGrArCrGrUdTdG

>  <output-unit>
%

>  <measured-result>
80.4

$$$$

Here is another substance to look at.
Query :: Returns the measured normalised inhibition (eCFP-eYFP dual reporter) for the input substance. Input: sense rCrArArCrCrCrCrGrArGrGrArCrCrCrArCrUrGdTdT / antisense rCrArGrUrGrGrGrUrCrCrUrCrGrGrGrGrUrUrGdGdG
Result :: 62.8
